target: HLA-A*68:01; test: IEDB peptide-MHC binding, purified MHC/competitive/radioactivity; bounds were set here for any values at or beyond the usual limits of such assays; conditions: source organism: Homo sapiens
Recorded IC50 values for a group of sequences are listed next.

Consider the following illustrative entries.
RAKLLGAEEK : 28.9 µM
GRAKLLGAEEK : ≥ 50 µM
GLAKLLGAEEK : ≥ 50 µM
HVKITDFGL : ≥ 50 µM
FGLAKLLGA : ≥ 50 µM

Now consider the entry below.
[ask] Look up and report IC50, with HLA-A*68:01 as system, for LAKLLGAEEK
[reply] 2.01 µM

---

molecular target: HLA-A*03:01; experiment: IEDB peptide-MHC binding, purified MHC/competitive/radioactivity; bounds were set here for any values at or beyond the usual limits of such assays; conditions: source organism: Homo sapiens
Recorded pIC50 values for a group of sequences are listed next.
Please treat pIC50 as minus the base-10 logarithm of the molar concentration.

Consider the following illustrative entries.
PVAIKTSPKAN : 5.35
GRAKLLGAEEK : 4.37
IPVAIKTSPK : 5.78

[ask] Read off the recorded pIC50 for KIPVAIKTSPK
[reply] 6.60

[ask] Read off the recorded pIC50 for VAIKTSPKANK
[reply] 5.73

[ask] Read off the recorded pIC50 for KVKIPVAIKTS
[reply] 6.29

[ask] Read off the recorded pIC50 for IKTSPKANK
[reply] 4.78

[ask] Read off the recorded pIC50 for KVKIPVAIKT
[reply] 6.40

[ask] Read off the recorded pIC50 for VAIKTSPK
[reply] 5.43

[ask] Read off the recorded pIC50 for PVAIKTSPK
[reply] 6.28

[ask] Read off the recorded pIC50 for LAKLLGAEEK
[reply] 4.36

[ask] Read off the recorded pIC50 for AIKTSPKANK
[reply] 6.23

[ask] Read off the recorded pIC50 for GLAKLLGAEEK
[reply] 6.18

[ask] Read off the recorded pIC50 for EKVKIPVAIKT
[reply] 4.95

[ask] Read off the recorded pIC50 for AIKTSPKANKE
[reply] 5.80

[ask] Read off the recorded pIC50 for RAKLLGAEEK
[reply] 5.18

[ask] Read off the recorded pIC50 for KTSPKANK
[reply] 6.17

[ask] Read off the recorded pIC50 for PVAIKTSPKA
[reply] 5.03

---

molecular target: HLA-A*33:01; assay: IEDB peptide-MHC binding, purified MHC/competitive/radioactivity; bounds were set here for any values at or beyond the usual limits of such assays; details: source organism: Homo sapiens
Recorded pIC50 values for a group of sequences are listed next.
Please treat pIC50 as minus the base-10 logarithm of the molar concentration.

Consider the following illustrative entries.
RAKLLGAEEK : 4.45
HVKITDFGL : 5.19

Now consider the entry below.
[ask] Read off the recorded pIC50 for LAKLLGAEEK
[reply] 4.69

---

biological target: HLA-A*02:01; experiment: IEDB peptide-MHC binding, purified MHC/competitive/radioactivity; bounds were set here for any values at or beyond the usual limits of such assays; settings: source organism: Homo sapiens
metric-name: IC50

Consider the following illustrative entries.
VKIPVAIKT : ≥ 20 µM
AIKTSPKANKE : ≥ 20 µM
KIPVAIKTSPK : ≥ 20 µM
VKIPVAIKTSP : ≥ 20 µM
IPVAIKTS : ≥ 20 µM
IPVAIKTSPKA : ≥ 20 µM
KTSPKANKEI : ≥ 20 µM
VAIKTSPKANK : ≥ 20 µM

[ask] Read off the recorded IC50 for VAIKTSPKA
[reply] ≥ 20 µM

[ask] Read off the recorded IC50 for VKIPVAIKTS
[reply] ≥ 20 µM

---

target: HLA-A*31:01; assay: IEDB peptide-MHC binding, purified MHC/competitive/radioactivity; bounds were set here for any values at or beyond the usual limits of such assays; conditions: source organism: Homo sapiens
pIC50: −log10 of the molar value.
// f strictly below 5 in pIC50; t otherwise

As a guide, the following entries are already answered.
LAKLLGAEEK : f
GLAKLLGAEEK : t
HVKITDFGL : t
GRAKLLGAEEK : t

As a next step, examine the sequence that follows.
[ask] Record RAKLLGAEEK ; criterion: pIC50 no lower than 5. Met?
[reply] t

---

target: HLA-B*27:05; test: IEDB peptide-MHC binding, purified MHC/competitive/radioactivity; bounds were set here for any values at or beyond the usual limits of such assays; conditions: source organism: Homo sapiens
Please respond with 1 when measured IC50 is strictly beneath 10 µM, and with 0 in all other cases.

As a guide, the following entries are already answered.
GLAKLLGAEEK : 0
GRAKLLGAEEK : 1
RAKLLGAEEK : 0

[ask] Dear colleague, could you confirm whether IC50 of LAKLLGAEEK falls below 10 µM? Thanks.
[reply] 0

[ask] Dear colleague, could you confirm whether IC50 of FGLAKLLGA falls below 10 µM? Thanks.
[reply] 1

[ask] Dear colleague, could you confirm whether IC50 of HVKITDFGL falls below 10 µM? Thanks.
[reply] 0

---

Recorded pIC50 values for a group of sequences are listed next.
molecular target: HLA-B*08:01; test: IEDB peptide-MHC binding, purified MHC/competitive/radioactivity; bounds were set here for any values at or beyond the usual limits of such assays; conditions: source organism: Homo sapiens
Please treat pIC50 as minus the base-10 logarithm of the molar concentration.

Consider the following illustrative entries.
FGLAKLLGA : 7.57
HVKITDFGL : 6.32

Now consider the entry below.
[ask] Look up and report pIC50, with HLA-B*08:01 as system, for GLAKLLGAEEK
[reply] 5.47

---

biological target: HLA-A*30:01; assay: IEDB peptide-MHC binding, purified MHC/competitive/radioactivity; bounds were set here for any values at or beyond the usual limits of such assays; conditions: source organism: Homo sapiens
metric-name: pIC50
Please treat pIC50 as minus the base-10 logarithm of the molar concentration.

RAKLLGAEEK : 5.75
HVKITDFGL : 5.12

[ask] Read off the recorded pIC50 for FGLAKLLGA
[reply] 5.06

[ask] Read off the recorded pIC50 for LAKLLGAEEK
[reply] 4.43

---

Recorded pIC50 values for a group of sequences are listed next.
biological target: HLA-A*33:01; test: IEDB peptide-MHC binding, purified MHC/competitive/radioactivity; bounds were set here for any values at or beyond the usual limits of such assays; details: source organism: Homo sapiens
pIC50: −log10 of the molar value.

Consider the following illustrative entries.
GLAKLLGAEEK : ≤ 4.30
GRAKLLGAEEK : ≤ 4.30

Now consider the entry below.
[ask] Read off the recorded pIC50 for FGLAKLLGA
[reply] ≤ 4.30

---

Recorded IC50 values for a group of sequences are listed next.
biological target: HLA-A*02:01; assay: IEDB peptide-MHC binding, purified MHC/competitive/radioactivity; bounds were set here for any values at or beyond the usual limits of such assays; conditions: source organism: Homo sapiens

Consider the following illustrative entries.
KVKIPVAIKTS : ≥ 20 µM
VAIKTSPKAN : ≥ 20 µM
PVAIKTSPKAN : ≥ 20 µM
AIKTSPKA : ≥ 20 µM
IKTSPKANKEI : ≥ 20 µM
FGLAKLLGA : 0.107 µM

[ask] Read off the recorded IC50 for KVKIPVAIKT
[reply] ≥ 20 µM

[ask] Read off the recorded IC50 for AIKTSPKAN
[reply] ≥ 20 µM

[ask] Read off the recorded IC50 for GLAKLLGAEEK
[reply] ≥ 50 µM

[ask] Read off the recorded IC50 for IKTSPKANK
[reply] ≥ 20 µM

[ask] Read off the recorded IC50 for EKVKIPVAIKT
[reply] ≥ 20 µM

[ask] Read off the recorded IC50 for VAIKTSPK
[reply] ≥ 20 µM

---

target: HLA-B*08:01; experiment: IEDB peptide-MHC binding, purified MHC/competitive/radioactivity; bounds were set here for any values at or beyond the usual limits of such assays; details: source organism: Homo sapiens
Recorded IC50 values for a group of sequences are listed next.

Consider the following illustrative entries.
LAKLLGAEEK : ≥ 50 µM
GRAKLLGAEEK : ≥ 50 µM

[ask] Read off the recorded IC50 for RAKLLGAEEK
[reply] ≥ 50 µM

---

molecular target: HLA-A*02:01; experiment: IEDB peptide-MHC binding, purified MHC/competitive/radioactivity; bounds were set here for any values at or beyond the usual limits of such assays; details: source organism: Homo sapiens
pIC50: −log10 of the molar value.
metric-name: pIC50

[ask] Read off the recorded pIC50 for AIKTSPKANK
[reply] ≤ 4.70

[ask] Read off the recorded pIC50 for KTSPKANKEIL
[reply] ≤ 4.70

[ask] Read off the recorded pIC50 for KTSPKANK
[reply] ≤ 4.70

[ask] Read off the recorded pIC50 for PVAIKTSP
[reply] ≤ 4.70

[ask] Read off the recorded pIC50 for GRAKLLGAEEK
[reply] ≤ 4.30

[ask] Read off the recorded pIC50 for IPVAIKTSPK
[reply] ≤ 4.70

[ask] Read off the recorded pIC50 for KIPVAIKTS
[reply] ≤ 4.70

[ask] Read off the recorded pIC50 for HVKITDFGL
[reply] ≤ 4.30

[ask] Read off the recorded pIC50 for RAKLLGAEEK
[reply] ≤ 4.30

[ask] Read off the recorded pIC50 for LAKLLGAEEK
[reply] ≤ 4.30

[ask] Read off the recorded pIC50 for KIPVAIKTSP
[reply] ≤ 4.70

[ask] Read off the recorded pIC50 for PVAIKTSPK
[reply] ≤ 4.70

[ask] Read off the recorded pIC50 for PVAIKTSPKA
[reply] ≤ 4.70

[ask] Read off the recorded pIC50 for IKTSPKAN
[reply] ≤ 4.70

[ask] Read off the recorded pIC50 for IKTSPKANKE
[reply] ≤ 4.70

[ask] Read off the recorded pIC50 for KIPVAIKT
[reply] ≤ 4.70
